B1: library; a variant is named by its letters at N, in order (parent)
chain: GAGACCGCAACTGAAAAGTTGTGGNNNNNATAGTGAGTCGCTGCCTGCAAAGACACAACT

# Variants of: B1
# assay info: ligation selection enrichment (abundance after / before one-round selection) (fold); higher = more template-directed ligation activity
# condition context: with T7Psub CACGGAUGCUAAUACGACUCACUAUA; MgCl2 25 mM; 42 °C; 4 h; pH 8.5
The following ranges of ligation selection enrichment define the classes used here: I (below 0.2), II (0.2 to below 0.4), III (0.4 or more)

- variant label: "ATATA"
  class name: "II"
- variant label: "AGAGA"
  class name: "II"
- variant label: "GAGTG"
  class name: "II"

Could you tell me which band "CAGTG" belongs to?
I

Could you tell me which band "CTTGT" belongs to?
III
